What Kd was measured for each of the following?
- Test system: T1, lamin A/C Ig-fold domain (aa 411-566) (human, UniProt P02545 411-566)
- T1 construct: human lamin A/C fragment from aa 411 to aa 566 (Ig-fold domain); 15N-labelled (grown in M9) for the NMR experiments; also called Igfold domain of lamin A/C; source: E. coli BL21* (DE3), purified (glutathione beads, thrombin cleavage, gel filtration)
- T1 sequence (looked up): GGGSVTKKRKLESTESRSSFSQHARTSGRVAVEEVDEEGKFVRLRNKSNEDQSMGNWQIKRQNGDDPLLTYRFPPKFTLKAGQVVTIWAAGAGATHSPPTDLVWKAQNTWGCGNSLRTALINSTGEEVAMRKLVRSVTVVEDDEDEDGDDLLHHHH
- Protocol: ITC; VP-ITC; 100 or 200 uM lamin A/C Ig-fold in the syringe, 20 uM BAF WT or 40 uM BAF A12T in the cell; 50 mM Hepes pH 7.4, 150 mM NaCl, 288 K; stoichiometry set to 0.5 in the fit; each experiment done twice
- Condition info: both partners purified
Give bare numbers, in µM.

- BAF WT (barrier-to-autointegration factor, purified cysteine-free construct) (natural protein, human, UniProt O75531 1-89, looked up, human barrier-to-autointegration factor (BAF, 89 amino acids); after tag cleavage the first residue is G instead of M; gene synthesized by Genscript in pETM13; also called BAF WT dimer; not shown: His8, N-terminal, cleaved) GTTSQKHRDFVAEPMGEKPVGSLAGIGEVLGKKLEERGFDKAYVVLGQFLVLKKDEDLFREWLKDTAGANAKQSRDAFGALREWADAFL: 2.7

Would you mind telling me what Kd value was observed for BAF A12T (barrier-to-autointegration factor A12T, purified cysteine-free construct) (natural protein, human, UniProt O75531 1-89, looked up, human barrier-to-autointegration factor (BAF, 89 amino acids); made by mutagenesis of the BAF WT expression vector (all cysteines to alanine, M1G after tag cleavage) with the NGPS mutation A12T; PDB 6GHD holds the parent (BAF WT); PDB 7Z21 holds this mutant; also called BAF A12T dimer; not shown: His8, N-terminal, cleaved) GTTSQKHRDFVTEPMGEKPVGSLAGIGEVLGKKLEERGFDKAYVVLGQFLVLKKDEDLFREWLKDTAGANAKQSRDAFGALREWADAFL ?
33
